Source listed as ChEMBL document CHEMBL1149698.

tested on: Plasmodium falciparum; test: Antimalarial activity against chloroquine-sensitive Plasmodium falciparum 3D7; format: functional; details: read-out: ED50 (the source's name)
MEASURED ENDPOINT: EC50
Could you kindly put the unit after your number?

For the molecule shown here, CCN(CC)CCCC(C)Nc1ccnc2cc(Cl)ccc12 (stereo unspecified) [CHLOROQUINE] , give the reported EC50.
8.52 nM
